solubility values for the compounds below.
assay-comment: Solubility of compound in JP 1st fluid at pH 1.2
Assay type: physicochemical
Give the quantity in µM, number only.

Below: 2 compounds and their reported solubility.
>>> observed_measurement("COC1CCN(C(=O)N[C@H]2CC[C@H](c3ccc(-c4c[nH]c([C@@H]5CCCN5C(=O)[C@H](NC(=O)N5CC[C@@H](NC(=O)OCc6ccccc6)C5)c5ccccc5)n4)cc3)CC2)CC1")
222
>>> observed_measurement("CCC#CCOC(=O)N[C@@H]1CCN(C(=O)N[C@@H](C(=O)N2CCC[C@H]2c2nc(-c3ccc([C@H]4CC[C@H](NC(=O)c5cnccn5)CC4)cc3)c[nH]2)c2ccccc2)C1")
336

For the compound CC(C)(C)C#CCOC(=O)N[C@@H]1CCN(C(=O)N[C@@H](C(=O)N2CCC[C@H]2c2nc(-c3ccc([C@H]4CC[C@H](NC(=O)c5cnc(CO)cn5)CC4)cc3)c[nH]2)c2ccccc2)C1 , what solubility is on record?
132

---

assay-comment: Solubility of compound in JP 1st fluid at pH 1.2
Format: physicochemical
assay-readout: solubility (µM)
Give the quantity in µM, number only.

Below: 4 compounds and their reported solubility.
>>> observed_measurement("COC1CCC(C(=O)N[C@H]2CC[C@H](c3ccc(-c4c[nH]c([C@@H]5CCCN5C(=O)[C@H](NC(=O)N5CC[C@@H](NC(=O)OCc6ccccc6)C5)c5ccccc5)n4)cc3)CC2)CC1 (stereo not given in full)")
193
>>> observed_measurement("COC1CCC(C(=O)N[C@H]2CC[C@H](c3ccc(-c4c[nH]c([C@@H]5CCCN5C(=O)[C@H](NC(=O)N5CC[C@@H](NC(=O)OCC6CCCCC6)C5)c5ccccc5)n4)cc3)CC2)CC1 (stereo not given in full)")
108
>>> observed_measurement("CC#CCCOC(=O)N[C@@H]1CCN(C(=O)N[C@@H](C(=O)N2CCC[C@H]2c2nc(-c3ccc([C@H]4CC[C@H](NC(=O)c5cnccn5)CC4)cc3)c[nH]2)c2ccccc2)C1")
352
>>> observed_measurement("CCCC#CCOC(=O)N[C@@H]1CCN(C(=O)N[C@@H](C(=O)N2CCC[C@H]2c2nc(-c3ccc([C@H]4CC[C@H](NC(=O)c5cnccn5)CC4)cc3)c[nH]2)c2ccccc2)C1")
135

// moving on: another record for solubility
For the compound CC#CCOC(=O)N[C@@H]1CCN(C(=O)N[C@@H](C(=O)N2CCC[C@H]2c2nc(-c3ccc([C@H]4CC[C@H](NC(=O)c5cnccn5)CC4)cc3)c[nH]2)c2ccccc2)C1 , what solubility is on record?
462

---

target-entity: Nonstructural protein 5A (Hepatitis C virus, UniProt Q5L478)
Sequence (Q5L478 whole entry): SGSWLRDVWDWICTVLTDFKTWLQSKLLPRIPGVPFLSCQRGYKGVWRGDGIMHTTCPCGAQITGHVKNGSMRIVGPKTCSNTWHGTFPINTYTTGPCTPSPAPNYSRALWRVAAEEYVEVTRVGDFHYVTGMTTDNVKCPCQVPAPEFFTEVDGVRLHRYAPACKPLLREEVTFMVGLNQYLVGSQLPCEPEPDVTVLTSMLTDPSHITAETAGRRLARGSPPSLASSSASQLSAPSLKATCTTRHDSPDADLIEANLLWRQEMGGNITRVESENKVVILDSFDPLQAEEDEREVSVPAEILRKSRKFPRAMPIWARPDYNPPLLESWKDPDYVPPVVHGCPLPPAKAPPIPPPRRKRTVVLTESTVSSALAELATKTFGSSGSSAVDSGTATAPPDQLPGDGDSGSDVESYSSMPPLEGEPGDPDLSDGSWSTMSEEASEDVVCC
assay-comment: Inhibition of Hepatitis C virus 1a NS5A
Design: species or system Hepatitis C virus subtype 1a
I'd appreciate it if you marked entries yes when EC50 is lower than 0.4 nM and no when it is not.

// below: answered molecules
>>> cat("CC(C)C#CCOC(=O)N[C@@H]1CCN(C(=O)N[C@@H](C(=O)N2CCC[C@H]2c2nc(-c3ccc([C@H]4CC[C@H](NC(=O)c5cnccn5)CC4)cc3)c[nH]2)c2ccccc2)C1")
"yes"
>>> cat("CC(C)(C)C#CCOC(=O)N[C@@H]1CCN(C(=O)N[C@@H](C(=O)N2CCC[C@H]2c2nc(-c3ccc([C@H]4CC[C@H](NC(=O)c5cnc(CO)cn5)CC4)cc3)c[nH]2)c2ccccc2)C1")
"yes"
>>> cat("CC#CCOC(=O)N[C@@H]1CCN(C(=O)N[C@@H](C(=O)N2CCC[C@H]2c2nc(-c3ccc([C@H]4CC[C@H](NC(=O)c5cnccn5)CC4)cc3)c[nH]2)c2ccccc2)C1")
"no"

Now examine the next entry.
# strict comparison: is reported EC50 < 0.4 nM? input = CC#CCCOC(=O)N[C@@H]1CCN(C(=O)N[C@@H](C(=O)N2CCC[C@H]2c2nc(-c3ccc([C@H]4CC[C@H](NC(=O)c5cnccn5)CC4)cc3)c[nH]2)c2ccccc2)C1
no

---

assay-comment: Solubility of compound in JP 1st fluid at pH 1.2
Assay type: physicochemical
solubility values for the compounds below.
Give the quantity in µM, number only.

Below: 4 compounds and their reported solubility.
>>> observed_measurement("CC(C)C#CCOC(=O)N[C@@H]1CCN(C(=O)N[C@@H](C(=O)N2CCC[C@H]2c2nc(-c3ccc([C@H]4CC[C@H](NC(=O)c5cnccn5)CC4)cc3)c[nH]2)c2ccccc2)C1")
246
>>> observed_measurement("O=C(N[C@@H]1CCN(C(=O)N[C@@H](C(=O)N2CCC[C@H]2c2nc(-c3ccc([C@H]4CC[C@H](NC(=O)c5cnccn5)CC4)cc3)c[nH]2)c2ccccc2)C1)OCC1CCCCC1")
76
>>> observed_measurement("CC(C)(C)C#CCOC(=O)N[C@@H]1CCN(C(=O)N[C@@H](C(=O)N2CCC[C@H]2c2nc(-c3ccc([C@H]4CC[C@H](NC(=O)c5cnccn5)CC4)cc3)c[nH]2)c2ccccc2)C1")
142
>>> observed_measurement("CCCCCOC(=O)N[C@@H]1CCN(C(=O)N[C@@H](C(=O)N2CCC[C@H]2c2nc(-c3ccc([C@H]4CC[C@H](NC(=O)c5cnccn5)CC4)cc3)c[nH]2)c2ccccc2)C1")
197

// moving on: another record for solubility
For the compound CC(C)C#CCOC(=O)N[C@@H]1CCN(C(=O)N[C@@H](C(=O)N2CCC[C@H]2c2nc(-c3ccc([C@H]4CC[C@H](NC(=O)c5cnc(CO)cn5)CC4)cc3)c[nH]2)c2ccccc2)C1 , what solubility is on record?
190

---

pEC50 values for the compounds below.
target-entity: Nonstructural protein 5A (Hepatitis C virus, UniProt Q5L478)
assay-comment: Inhibition of Hepatitis C virus 1b NS5A
Set-up: species or system Hepatitis C virus subtype 1b
pEC50: −log10 of the molar value.

Below: 2 compounds and their reported pEC50.
>>> observed_measurement("CC#CCCOC(=O)N[C@@H]1CCN(C(=O)N[C@@H](C(=O)N2CCC[C@H]2c2nc(-c3ccc([C@H]4CC[C@H](NC(=O)c5cnccn5)CC4)cc3)c[nH]2)c2ccccc2)C1")
"> 11.00"
>>> observed_measurement("CC(C)C#CCOC(=O)N[C@@H]1CCN(C(=O)N[C@@H](C(=O)N2CCC[C@H]2c2nc(-c3ccc([C@H]4CC[C@H](NC(=O)c5cnccn5)CC4)cc3)c[nH]2)c2ccccc2)C1")
"> 11.00"

// moving on: another record for pEC50
For the compound CC(C)(C)C#CCOC(=O)N[C@@H]1CCN(C(=O)N[C@@H](C(=O)N2CCC[C@H]2c2nc(-c3ccc([C@H]4CC[C@H](NC(=O)c5cnccn5)CC4)cc3)c[nH]2)c2ccccc2)C1 , what pEC50 is on record?
> 11.00
